- System: CLZ3 (HCA2 human fibroblast dual HR-NHEJ reporter)
- ASSAY_REMARKS: NHEJ repair efficiency (GFP+ cells) relative to control (log10 fold); higher = more non-homologous end joining
- MEASUREMENT_CONDITIONS: 5 µM; doxycycline 0.5 ug/mL
Where a name gives a salt, the structure may show the parent alone.
Would you mind labelling by NHEJ repair efficiency (log10)? At or over -0.02 is Satisfied, under is Not satisfied.

Would you please look over these solved cases?
molecule=C[C@@H]1O[C@@H](OC[C@H]2O[C@@H](Oc3cc(O)c4c(c3)O[C@H](c3ccc(O)cc3)CC4=O)[C@H](O)[C@@H](O)[C@@H]2O)[C@H](O)[C@H](O)[C@H]1O class_label=Satisfied
molecule="NCCCC(=O)O [g-Aminobutyric acid]" class_label=Satisfied
molecule=O=c1c(-c2ccc(O)cc2)coc2c([C@@H]3O[C@H](CO)[C@@H](O)[C@H](O)[C@H]3O)c(O)ccc12 class_label=Satisfied

Record O=C(/C=C/c1ccc(O[C@@H]2O[C@H](CO)[C@@H](O)[C@H](O)[C@H]2O)cc1)c1ccc(O)cc1O [Isoliquiritin] ; criterion: NHEJ repair efficiency (log10) no lower than -0.02. Met?
Not satisfied

Does C=C1CCC[C@]2(C)C[C@]3(O)OC(=O)C(C)=C3C[C@@H]12 [Atractylenolide Iii] have a reported NHEJ repair efficiency (log10) of at least -0.02?
Satisfied

Entry O=C(O)c1ccccc1 : is its NHEJ repair efficiency (log10) no less than -0.02?
Not satisfied

State whether the measured NHEJ repair efficiency (log10) reaches -0.02, counting equality as reaching it, for COC(=O)C1=CO[C@@H](O[C@@H]2O[C@H](CO)[C@@H](O)[C@H](O)[C@H]2O)[C@H]2[C@@H]1C(=O)C[C@@H]2C
Satisfied

Assess whether reported NHEJ repair efficiency (log10) for c1cc2c(c3c1CC1c4cc5c(cc4CCN1C3)OCO5)OCO2 (stereo not drawn) [Tetrahydrocoptisine] sits at -0.02 or higher.
Not satisfied

API: above_or_equal(metric=NHEJ repair efficiency (log10), cutoff=-0.02) for item COc1cc2c(cc1OC)-c1cc3ccc(OC)c(OC)c3c[n+]1CC2 [Palmatine hydrochloride]
Satisfied

Dear colleague, could you confirm whether CC1(C)CC[C@]2(C(=O)O)CCC3=C([C@@H](CCl)C[C@@H]4[C@@]5(C)C[C@H](O)[C@H](O)[C@@](C)(C(=O)O)[C@@H]5CC[C@@]34C)[C@@H]2C1 [Senegenin] has NHEJ repair efficiency (log10) at or above -0.02?
Not satisfied

---

- Test system: CLZ3 (HCA2 human fibroblast dual HR-NHEJ reporter)
- ASSAY_REMARKS: HR repair efficiency (tdTomato+ cells) relative to control (log10 fold); higher = more homologous recombination
- MEASUREMENT_CONDITIONS: 5 µM; doxycycline 0.5 ug/mL
RECORDED_ENDPOINT: HR repair efficiency (log10)
Answer using only a numeral; do not append any unit.

Use these answered entries as a reference point.
compound=Oc1ccc(/C=C/c2cc(O)cc(O)c2)cc1 numeric_readout=0.0336
compound="COc1c(O[C@@H]2O[C@H](C(=O)O)[C@@H](O)[C@H](O)[C@H]2O)cc(O)c2c(=O)cc(-c3ccccc3)oc12 [Wogonoside]" numeric_readout=-0.00302

So what's the measured HR repair efficiency (log10) for this one? COc1ccc2c(c1O)-c1c(O)c(OC)cc3c1[C@H](C2)[N+](C)(C)CC3 [Magnoflorine iodide]
-0.0243

Would you kindly share the measured HR repair efficiency (log10) for C=C1[C@H]2CC[C@]3([C@@H]1O)[C@H]1C[C@@H]4C5(C)CCCC4([C@@H]1N(CC)C5)[C@@H]3[C@H]2O ?
0.0616

Quick one: HR repair efficiency (log10) for COc1cc(-c2cc(=O)c3c(O)c(OC)c(O)cc3o2)ccc1O ?
-0.105

Can you share its HR repair efficiency (log10)? I mean this compound: CC(C)=CCC/C(C)=C/CC/C(C)=C/CC/C(C)=C/CC/C(C)=C/CC/C(C)=C/CC/C(C)=C/CC/C(C)=C/CC/C(C)=C/CO
-0.0545

Give its HR repair efficiency (log10) value. Item: COc1cc2ccc(=O)oc2c(O[C@@H]2O[C@H](CO)[C@@H](O)[C@H](O)[C@H]2O)c1O [Fraxin;Fraxoside; Paviin]
0.0876

---

- Tested on: CLZ3 (HCA2 human fibroblast dual HR-NHEJ reporter)
- ASSAY_REMARKS: NHEJ repair efficiency (GFP+ cells) relative to control (log10 fold); higher = more non-homologous end joining
- MEASUREMENT_CONDITIONS: 5 µM; doxycycline 0.5 ug/mL
Where a name gives a salt, the structure may show the parent alone.
Binary classification by NHEJ repair efficiency (log10), with 0.05 as an inclusive lower bound for Y; all other cases are N.

// below: answered compounds
compound="OC[C@H]1O[C@@H](Oc2c(O)cc(O)cc2/C=C/c2ccc(O)cc2)[C@H](O)[C@@H](O)[C@@H]1O [2,3,5,4'-Tetrahydroxy Stilbene 2-Ο-Β-D-Glucoside]" class_label=Y
compound="CC1CCC(C(C)C)C(O)C1 (racemic)" class_label=Y
compound="C[N+]1(C)CCCC1C(=O)O (configuration not stated) [Stachydrine Hydrochloride]" class_label=N
compound=O=C1O[C@H]2[C@@H]3OC(=O)c4cc(O)c(O)c(O)c4-c4c(cc(O)c(O)c4O)C(=O)OC[C@H]2O[C@@H](OC(=O)c2cc(O)c(O)c(O)c2)[C@@H]3OC(=O)c2cc(O)c(O)c3c2[C@@H]2C1=CC(=O)[C@](O)(O3)C2(O)O class_label=N
compound="COc1ccc2cc3[n+](cc2c1OC)CCc1cc2c(cc1-3)OCO2 [Berberine hydrochloride]" class_label=N

Item O=C[C@H](O)[C@@H](O)[C@H](O)[C@H](O)CO[C@H]1O[C@H](CO[C@H]2O[C@H](CO)[C@H](O)[C@H](O)[C@H]2O)[C@H](O)[C@H](O)[C@H]1O with NHEJ repair efficiency (log10) of 0.05 or above?
N

Decide: is the reported value of NHEJ repair efficiency (log10) for O=Cc1ccc(CO)o1 [5-Hydroxymethylfurfural] equal to or greater than 0.05?
N

Quick check, NHEJ repair efficiency (log10) >= 0.05? COc1ccc(-c2oc3cc(O)cc(O)c3c(=O)c2O)cc1 [Kaempferide]
N

---

- Test system: CLZ3 (HCA2 human fibroblast dual HR-NHEJ reporter)
- ASSAY_REMARKS: HR repair efficiency (tdTomato+ cells) relative to control (log10 fold); higher = more homologous recombination
- MEASUREMENT_CONDITIONS: 5 µM; doxycycline 0.5 ug/mL
Class boundaries, taken from values of HR repair efficiency (log10), are as follows: lower segment = under 0.05, middle segment = from 0.05 up to 0.08, upper segment = 0.08 and over

Which bin should I file C[C@H]1O[C@@H](O[C@H]2CC[C@@]3(C)[C@@H](CC[C@]4(C)[C@@H]3C=CC3=C5CC(C)(C)CC[C@]5(CO)[C@H](O)C[C@]34C)[C@]2(C)CO)[C@H](O)[C@@H](O[C@@H]2O[C@H](CO)[C@@H](O)[C@H](O)[C@H]2O)[C@H]1O under?
upper segment

For this compound, which bin applies? O=Cc1ccc(O)cc1 [4-Hydroxybenzaldehyde]
upper segment

# bin label for Oc1cc(O)c2c(c1)O[C@H](c1ccc(O)c(O)c1)[C@H](O)[C@H]2c1c(O)cc(O)c2c1O[C@H](c1ccc(O)c(O)c1)[C@H](O)C2
lower segment

Any idea which band COc1cc([C@@H]2Oc3c(O)cc([C@H]4Oc5cc(O)cc(O)c5C(=O)[C@@H]4O)cc3[C@H]2CO)ccc1O is in?
middle segment

Into which bin does this compound go? COc1cc(OC)c2ccc(=O)oc2c1 [5,7-Dimethoxycoumarin]
middle segment

Which bin, given its HR repair efficiency (log10), does O=C(/C=C/c1ccc(O)c(O)c1)O[C@@H]1C[C@](OC(=O)/C=C/c2ccc(O)c(O)c2)(C(=O)O)C[C@@H](O)[C@H]1O occupy?
lower segment

Given C[C@@H]1CC[C@@]2(OC1)O[C@H]1C[C@H]3[C@@H]4CC=C5C[C@@H](O)C[C@@H](O)[C@]5(C)[C@H]4CC[C@]3(C)[C@H]1[C@@H]2C , name the class its HR repair efficiency (log10) places it in.
upper segment

// return the class label for COc1cc(OC)c2ccc(=O)oc2c1 [Citropten]
upper segment

Consider CC1(C)O[C@H]1COc1c2ccoc2cc2oc(=O)ccc12 . To which HR repair efficiency (log10) class does it belong?
lower segment

---

- Tested on: CLZ3 (HCA2 human fibroblast dual HR-NHEJ reporter)
- ASSAY_REMARKS: NHEJ repair efficiency (GFP+ cells) relative to control (log10 fold); higher = more non-homologous end joining
- MEASUREMENT_CONDITIONS: 5 µM; doxycycline 0.5 ug/mL
NHEJ repair efficiency (log10) of 0.04 or higher: criterion met. Under 0.04: criterion not met.

See these solved cases before continuing.
compound="Oc1cc(O)cc(/C=C/c2ccc(O)c(O)c2)c1 [Piceatannol]" class_label="criterion met"
compound="CC(C)=CCC[C@](C)(O[C@@H]1O[C@H](CO)[C@@H](O)[C@H](O)[C@H]1O)[C@H]1CC[C@]2(C)[C@@H]1[C@H](O)C[C@@H]1[C@@]3(C)CC[C@H](O)C(C)(C)[C@@H]3[C@@H](O[C@@H]3O[C@H](CO)[C@@H](O)[C@H](O)[C@H]3O)C[C@]12C [Ginsenoside Rg1]" class_label="criterion met"
compound="COc1ccc(-c2cc(=O)c3c(O)cc(O[C@@H]4O[C@H](CO[C@@H]5O[C@@H](C)[C@H](O)[C@@H](O)[C@H]5O)[C@@H](O)[C@H](O)[C@H]4O)cc3o2)cc1 [Linarin]" class_label="criterion not met"
compound="C=C(C)[C@@H]1CC[C@]2(C)CC[C@]3(C)[C@H](CC[C@@H]4[C@@]5(C)CC[C@H](O)C(C)(C)[C@@H]5CC[C@]43C)[C@@H]12 [Lupeol]" class_label="criterion not met"

Is the recorded value of NHEJ repair efficiency (log10) equal to or greater than 0.04 for this compound? COc1ccc(-c2oc3c(CC=C(C)C)c(O[C@@H]4O[C@H](CO)[C@@H](O)[C@H](O)[C@H]4O)cc(O)c3c(=O)c2O[C@@H]2O[C@@H](C)[C@H](O)[C@@H](O)[C@H]2O[C@@H]2OC[C@@H](O)[C@H](O)[C@H]2O)cc1 [Epimedin B]
criterion not met
